# System: COLO 205 colon
# Protocol text: NCI tumour cell line growth inhibition, 48 h; in the data active = GI50 below about 0.43 µM; inactive = the rest
// one of 1 (active), -1 (inactive), no free text

Some solved entries appear below for comparison.
N[C@@H](Cc1c[nH]c2ccccc12)C(=O)NC1CCN(C(=O)c2c[nH]c3ccccc23)CC1 ... -1
Oc1ccc(/C=N\Nc2ccccn2)c(O)c1 ... -1
NC(=O)c1cnc(N[C@@H]2CCCC[C@@H]2N)nc1Nc1cccc(-n2nccn2)c1 ... -1
N#Cc1c(C(=O)c2ccccc2)cnn1-c1ccccc1 ... -1
CC1=C(/C=C/C(C)=C\C=C\C(C)=C\C(=O)Nc2ccc3c(c2)OCO3)C(C)(C)CCC1 ... -1
CC(C)(C)N1CCC1C(N)=O (stereo not drawn) ... -1
CSc1nc2c(c(=O)[nH]1)N=C1c3ccccc3C(=O)C1C(c1ccc(F)cc1)N2 (stereo not drawn) ... -1

Now examine the next entry.
[in] Just curious, what result did COc1ccccc1-[n+]1cc(-c2ccc(-c3ccccc3)cc2)n2c1CCCCC2 get here?
[out] 1

* * *

# System: ACHN renal
# Protocol text: NCI tumour cell line growth inhibition, 48 h
For each of the molecules below, state its TGI.
One number for each entry, in µM.

C[C@@H]1C=C(CCCCCCCCCCC[C@H](O)[C@@H]2CCC(=O)O2)C(=O)O1 ... 49.3

Read the next record carefully.
[in] Which TGI reading was recorded for the molecule C[C@]12CCC3[C@@H](C[C@@H]4SC(Nc5ccccc5)=N[C@@]45CC(=O)CC[C@]35C)[C@@H]1CCC2=O (stereo not given in full) ?
[out] 29.5

* * *

# System: HCC-2998 colon
# Protocol text: NCI tumour cell line growth inhibition, 48 h
Quantity kind: TGI (µM)
Numbers only, in µM.

NC(=O)c1cnc(N[C@@H]2CCCC[C@@H]2N)nc1Nc1cccc(-n2nccn2)c1 ... 4.82
CCOC(=O)CC(=O)Sc1ccccc1 ... 96
N#CC(=S)Nc1cccc(Cl)c1 ... 83.1
O=c1c2ccccc2c2ccccc2c(=O)n1-c1cc2c3ccccc3ccc2c2ccccc12 ... 89.1
Cc1ccc(C(CN(C)C)C(=O)c2ccccc2)cc1 (centres undefined) ... 20.2
COc1ccc(C2C3=CONC3CC3CCCCC32)cc1 (centres undefined) ... 47.3
CC(C)(C)C(=O)O[C@H]1C=C[C@@H](O)[C@@H]2[C@H]1[C@@H]1C=C[C@H]2C1 ... 32.4
CCCC[C@H]1C(=O)O[C@H](C)[C@H](NC(=O)c2cccc(NC=O)c2O)C(=O)O[C@@H](C)[C@@H]1OC(=O)CC(C)C ... 35.1
Cc1c(Cl)c(=O)oc2cc(OCC(O)COC(C)C)ccc12 (centres undefined) ... 37.3
O=c1cccc(C#CC#C[C@H]2O[C@@H]2CO)o1 ... 2.19

[in] Which TGI reading was recorded for the compound CC(=O)O[C@H]1C(=O)[C@@]2(C)C(C(OC(=O)c3ccccc3)[C@]3(O)CC(OC(=O)[C@H](OC(=O)CCC(=O)O)C(NC(=O)c4ccccc4)c4ccccc4)C(C)=C1C3(C)C)C1(OC(C)=O)COC1C[C@@H]2OC(=O)CCC(=O)O (some centres undefined) ?
[out] 42.4

* * *

# System: UACC-62 melanoma
# Protocol text: NCI tumour cell line growth inhibition, 48 h
*1 amine or outer side, *2 acyl side, *3 side chain or, on linkers, in order; H or OH if unused. Where a SMILES comes first, the peptide text is derived from it. Bridges are numbered along the chain shown (N, C = ends). Roman numbers before positions name the chains, in order. [ ]: non-standard residue; d: D form. Actinocin(9to1) = Cc1c2oc3c(C)ccc(C(=O)[*:1])c3nc-2c(C(=O)[*:2])c(N)c1=O; NMeV = CN[CH](C(=O)O)C(C)C; Sar = CNCC(=O)O
For each of the molecules below, state its TGI.

Some solved cases for reference:
CC(C)CCCC(C)[C@H]1CC[C@H]2NCCCC[C@]12C (some centres not stated) ... 3.91 µM
COc1ccc(/C=N/N=C(\N)NO)c(OC)c1OC ... > 100 µM
COCCn1cc(-c2csc(-c3c[nH]c4ccccc34)n2)c2cccnc21 ... > 100 µM

Provide TGI for all items below, preserving their order.
1. COC(=O)C1=C(C)N(NC(N)=O)C2(N)N(NC(N)=O)C(C)=C(C(=O)OC)C12C(=O)OC (configuration not stated)
2. Cc1c2oc3c(C)ccc(C(=O)NC4C(=O)NC(Cc5ccc(O)cc5)C(=O)N5CCCC5C(=O)N(C)CC(=O)N(C)C(C(C)C)C(=O)OC4C)c3nc-2c(C(=O)NC2C(=O)NC(Cc3ccc(O)cc3)C(=O)N3CCCC3C(=O)N(C)CC(=O)N(C)C(C(C)C)C(=O)OC2C)c(N)c1=O (configuration not stated) (I: TYP[Sar][NMeV] / II: TYP[Sar][NMeV]; ester I:1-I:C, II:1-II:C; linker I:N-II:N via Actinocin(9to1); configuration not given here)
3. CC12CCC3C(CC=C4CC(O)CCC43C)C1C/C(=C\N1CCCC1)C2=O (configuration not stated)
4. COCCN(C(=O)c1ccccc1)C1CCC(=O)c2[nH]c3ccccc3c21 (configuration not stated)

[out]
> 100 µM
> 67 µM
> 100 µM
36.5 µM

* * *

# Test system: TK-10 renal
# Protocol text: NCI tumour cell line growth inhibition, 48 h
Quantity kind: TGI

Some solved cases for reference:
CCCCCCCCCC(=O)CC(=O)c1ccc(O)cc1O ... > 100 µM
Cc1cc(=O)[nH]c(NN2C(Cl)C(=O)C2c2ccco2)n1 (configuration not stated) ... > 100 µM
OCc1cn(Cc2cccc(Cl)c2)c2ccccc12 ... 0.21 µM
Cc1sc2nc3n(sc4nc5sc(C)c(C)c5c(=O)n43)c(=O)c2c1C ... > 100 µM

Provide TGI for all items below, preserving their order.
1. O=Cc1c(-c2cc(O)ccc2O)nc2sccn12
2. O=C1c2c(O)cccc2Cc2cccc(O)c21
3. COc1ccc2[nH]c(-c3ccccn3)cc(=O)c2c1

[out]
1. 23.6 µM
2. 5.35 µM
3. > 100 µM

* * *

# Tested on: MCF7 breast
# Protocol text: NCI tumour cell line growth inhibition, 48 h; in the data active means GI50 below about 0.43 µM; inactive means the rest
// one of True for active, False for inactive, no free text

CN(C)CCCn1c2c(c3cnccc3c1=O)C(=O)c1ccccc1-2 ... True
CC(C)(C)N1CCC1C(N)=O (stereo unspecified) ... False
COc1ccccc1-[n+]1cc(-c2ccc(-c3ccccc3)cc2)n2c1CCCCC2 ... True
Oc1ccc(/C=N\Nc2ccccn2)c(O)c1 ... False
COc1ccc(-c2cc(-c3ccc(OC)c(OC)c3)nc(SCCCC(=O)NO)n2)cc1 ... False

Now examine the next entry.
[in] Just curious, what result did N[C@@H](Cc1c[nH]c2ccccc12)C(=O)NC1CCN(C(=O)c2c[nH]c3ccccc23)CC1 get here?
[out] False

* * *

For each of the compounds below, state its TGI.
# Test system: PC-3 prostate
# Protocol text: NCI tumour cell line growth inhibition, 48 h

Some solved cases for reference:
CCOC(=O)COC1=Nc2cc(OC)c(OC)c3nc(Cl)cc(c23)C1=O ... 3.45 µM
CN1CCCC(OC(=O)c2cc3cc(CCl)ccc3oc2=O)C1 (stereo not given) ... 41.3 µM

Provide TGI for all items below, preserving their order.
1. CCOc1ccccc1N=NC1C(=O)N(C(=O)CC(=O)Nc2ccccc2OC)N=C1C (stereo not given)
2. CCOC(=O)c1c(SCCN2CCCCC2)n(-c2ccccc2)c(=S)n(-c2ccccc2)c1=O
3. COC(=O)NC(Nc1ccc(C)cc1)(C(F)(F)F)C(F)(F)F
4. Cc1cn(C2CC(SCCO)C(CO)O2)c(=O)[nH]c1=O (stereo not given)
5. Cc1ccc(C(=O)Nc2ccc(CN3CCN(C)CC3)c(C(F)(F)F)c2)cc1C#Cc1cnc(N)cc1C#N
6. Cn1c(O)c(/C=N/c2ncccn2)c(=O)[nH]c1=O

[out]
1. > 100 µM
2. 27.7 µM
3. > 100 µM
4. > 100 µM
5. 1.76 µM
6. > 100 µM

* * *

# Test system: MOLT-4 leukemia
# Protocol text: NCI tumour cell line growth inhibition, 48 h; in the data active = GI50 below about 0.43 µM; inactive = the rest
// one of active, inactive, no free text

OCCCCC#Cc1ccccc1C#Cc1ccccc1 ... inactive

[in] Just curious, what result did Cc1c(C#N)cccc1-c1cc(-c2cn(Cc3cccc(C(C)(C)O)n3)nn2)nc(N)n1 get here?
[out] inactive

[in] Just curious, what result did CC(C)(C)N1CCC1C(N)=O (configuration not stated) get here?
[out] inactive

[in] Just curious, what result did CN(C)CCCn1c2c(c3cnccc3c1=O)C(=O)c1ccccc1-2 get here?
[out] active

[in] Just curious, what result did CCCCn1c2cc(OCc3cn(-c4ccc(Cl)cc4)nn3)ccc2c2ccnc(C)c21 get here?
[out] inactive

[in] Just curious, what result did CC[C@]1(O)CC2CN(CCc3c([nH]c4ccccc34)[C@@](C(=O)OC)(c3cc4c(cc3OC)N(C)[C@H]3[C@@](O)(C(=O)OC)[C@H](OC(C)=O)[C@]5(CC)C=CCN6CC[C@]43[C@@H]65)C2)C1 (some centres not stated) get here?
[out] active

[in] Just curious, what result did C=C1C(=O)O[C@H]2[C@H]1CC/C(COC(=O)NCc1cc3ccccc3[nH]1)=C\CC[C@@]1(C)O[C@@H]21 get here?
[out] inactive

[in] Just curious, what result did CC(=O)OC[C@H]1O[C@@H](n2ccc(=O)[nH]c2=O)[C@H](OC(C)=O)[C@@H]1OC(C)=O get here?
[out] inactive

[in] Just curious, what result did C=C1C(=O)O[C@H]2[C@H]1CC/C(COC(=O)/C=C/C(=O)OC/C1=C/CC[C@@]3(C)O[C@H]3[C@H]3OC(=O)C(=C)[C@@H]3CC1)=C\CC[C@@]1(C)O[C@@H]21 get here?
[out] active

[in] Just curious, what result did C#Cc1cccc(Nc2ncnc3cc(OCCOC)c(OCCOC)cc23)c1 get here?
[out] inactive

[in] Just curious, what result did C1CC[N-]CC1.C1CC[N-]CC1.C1CC[N-]CC1.C1CC[N-]CC1.[Cl][Rh][Cl] get here?
[out] inactive

[in] Just curious, what result did Nc1ccccc1C#C/C=C\C#Cc1ccccc1C(F)(F)F get here?
[out] inactive

[in] Just curious, what result did NC(=O)c1cnc(N[C@@H]2CCCC[C@@H]2N)nc1Nc1cccc(-n2nccn2)c1 get here?
[out] inactive

[in] Just curious, what result did Cc1ccc2c(c1)nc(C(=O)c1ccco1)c(C(F)(F)F)[n+]2[O-] get here?
[out] inactive

[in] Just curious, what result did N[C@@H](Cc1c[nH]c2ccccc12)C(=O)NC1CCN(C(=O)c2c[nH]c3ccccc23)CC1 get here?
[out] inactive

[in] Just curious, what result did CC1=C(/C=C/C(C)=C\C=C\C(C)=C\C(=O)Nc2ccc3c(c2)OCO3)C(C)(C)CCC1 get here?
[out] inactive

[in] Just curious, what result did COc1ccc(/C=C/C(=O)c2cc3c(N)c(C(=O)Nc4ccccc4Cl)sc3nc2C)cc1 get here?
[out] inactive
